Molecular target: HiBit-WIZ fusion protein (Homo sapiens, UniProt O95785+Q96SW2)
Sequence (O95785 whole entry, the tested form may be a part): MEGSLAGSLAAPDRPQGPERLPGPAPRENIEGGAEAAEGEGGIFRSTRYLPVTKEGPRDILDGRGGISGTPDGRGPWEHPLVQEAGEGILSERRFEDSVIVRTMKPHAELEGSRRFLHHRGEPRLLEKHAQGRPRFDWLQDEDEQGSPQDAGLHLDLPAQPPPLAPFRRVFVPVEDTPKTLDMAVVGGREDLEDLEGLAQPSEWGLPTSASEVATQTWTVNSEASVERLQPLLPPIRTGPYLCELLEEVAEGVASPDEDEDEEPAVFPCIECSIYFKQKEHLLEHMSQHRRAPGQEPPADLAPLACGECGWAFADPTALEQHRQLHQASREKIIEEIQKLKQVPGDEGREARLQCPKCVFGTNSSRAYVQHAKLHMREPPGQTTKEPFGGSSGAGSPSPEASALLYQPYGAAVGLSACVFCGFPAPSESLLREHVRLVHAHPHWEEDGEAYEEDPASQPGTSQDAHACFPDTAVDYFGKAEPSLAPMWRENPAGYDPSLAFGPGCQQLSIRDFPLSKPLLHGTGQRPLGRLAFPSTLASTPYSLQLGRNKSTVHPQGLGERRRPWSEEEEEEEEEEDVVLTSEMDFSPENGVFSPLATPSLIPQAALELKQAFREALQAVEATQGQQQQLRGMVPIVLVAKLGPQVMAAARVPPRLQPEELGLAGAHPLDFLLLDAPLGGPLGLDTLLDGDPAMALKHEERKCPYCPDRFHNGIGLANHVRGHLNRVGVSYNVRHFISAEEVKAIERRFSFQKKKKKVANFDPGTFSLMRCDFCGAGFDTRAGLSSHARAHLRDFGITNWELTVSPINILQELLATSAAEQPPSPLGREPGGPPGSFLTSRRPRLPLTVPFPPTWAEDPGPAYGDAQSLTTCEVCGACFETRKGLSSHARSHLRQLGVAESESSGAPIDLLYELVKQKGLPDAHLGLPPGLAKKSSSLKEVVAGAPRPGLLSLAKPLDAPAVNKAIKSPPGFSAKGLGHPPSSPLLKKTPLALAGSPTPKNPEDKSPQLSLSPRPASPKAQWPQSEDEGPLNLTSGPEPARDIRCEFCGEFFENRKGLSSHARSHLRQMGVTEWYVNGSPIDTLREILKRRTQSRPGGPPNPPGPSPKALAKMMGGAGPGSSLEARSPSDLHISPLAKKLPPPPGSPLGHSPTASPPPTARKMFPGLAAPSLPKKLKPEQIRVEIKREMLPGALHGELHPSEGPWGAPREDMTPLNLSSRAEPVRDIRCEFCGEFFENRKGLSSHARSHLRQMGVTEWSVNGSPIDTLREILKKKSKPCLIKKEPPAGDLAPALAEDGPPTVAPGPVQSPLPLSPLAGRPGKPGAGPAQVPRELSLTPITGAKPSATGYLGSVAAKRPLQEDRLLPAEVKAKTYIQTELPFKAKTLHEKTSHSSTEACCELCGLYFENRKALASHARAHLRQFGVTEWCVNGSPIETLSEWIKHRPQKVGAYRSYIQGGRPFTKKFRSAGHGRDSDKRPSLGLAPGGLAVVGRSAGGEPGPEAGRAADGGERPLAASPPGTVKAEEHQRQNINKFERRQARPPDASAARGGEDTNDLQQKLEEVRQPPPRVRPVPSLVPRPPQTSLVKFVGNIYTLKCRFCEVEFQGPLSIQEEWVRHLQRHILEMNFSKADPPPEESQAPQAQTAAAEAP
Sequence (Q96SW2 whole entry, the tested form may be a part): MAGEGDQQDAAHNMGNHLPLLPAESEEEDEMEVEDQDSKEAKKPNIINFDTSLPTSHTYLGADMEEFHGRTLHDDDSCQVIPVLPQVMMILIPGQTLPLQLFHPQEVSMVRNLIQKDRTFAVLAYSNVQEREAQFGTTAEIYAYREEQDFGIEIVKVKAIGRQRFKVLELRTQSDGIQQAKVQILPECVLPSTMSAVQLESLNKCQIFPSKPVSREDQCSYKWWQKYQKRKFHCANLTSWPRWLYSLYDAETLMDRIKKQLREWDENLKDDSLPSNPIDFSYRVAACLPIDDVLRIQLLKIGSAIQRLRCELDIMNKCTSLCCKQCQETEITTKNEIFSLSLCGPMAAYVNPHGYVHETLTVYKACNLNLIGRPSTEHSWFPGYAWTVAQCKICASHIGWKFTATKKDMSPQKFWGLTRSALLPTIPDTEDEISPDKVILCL
Sequence (Q16531 whole entry partner, the tested form may be a part): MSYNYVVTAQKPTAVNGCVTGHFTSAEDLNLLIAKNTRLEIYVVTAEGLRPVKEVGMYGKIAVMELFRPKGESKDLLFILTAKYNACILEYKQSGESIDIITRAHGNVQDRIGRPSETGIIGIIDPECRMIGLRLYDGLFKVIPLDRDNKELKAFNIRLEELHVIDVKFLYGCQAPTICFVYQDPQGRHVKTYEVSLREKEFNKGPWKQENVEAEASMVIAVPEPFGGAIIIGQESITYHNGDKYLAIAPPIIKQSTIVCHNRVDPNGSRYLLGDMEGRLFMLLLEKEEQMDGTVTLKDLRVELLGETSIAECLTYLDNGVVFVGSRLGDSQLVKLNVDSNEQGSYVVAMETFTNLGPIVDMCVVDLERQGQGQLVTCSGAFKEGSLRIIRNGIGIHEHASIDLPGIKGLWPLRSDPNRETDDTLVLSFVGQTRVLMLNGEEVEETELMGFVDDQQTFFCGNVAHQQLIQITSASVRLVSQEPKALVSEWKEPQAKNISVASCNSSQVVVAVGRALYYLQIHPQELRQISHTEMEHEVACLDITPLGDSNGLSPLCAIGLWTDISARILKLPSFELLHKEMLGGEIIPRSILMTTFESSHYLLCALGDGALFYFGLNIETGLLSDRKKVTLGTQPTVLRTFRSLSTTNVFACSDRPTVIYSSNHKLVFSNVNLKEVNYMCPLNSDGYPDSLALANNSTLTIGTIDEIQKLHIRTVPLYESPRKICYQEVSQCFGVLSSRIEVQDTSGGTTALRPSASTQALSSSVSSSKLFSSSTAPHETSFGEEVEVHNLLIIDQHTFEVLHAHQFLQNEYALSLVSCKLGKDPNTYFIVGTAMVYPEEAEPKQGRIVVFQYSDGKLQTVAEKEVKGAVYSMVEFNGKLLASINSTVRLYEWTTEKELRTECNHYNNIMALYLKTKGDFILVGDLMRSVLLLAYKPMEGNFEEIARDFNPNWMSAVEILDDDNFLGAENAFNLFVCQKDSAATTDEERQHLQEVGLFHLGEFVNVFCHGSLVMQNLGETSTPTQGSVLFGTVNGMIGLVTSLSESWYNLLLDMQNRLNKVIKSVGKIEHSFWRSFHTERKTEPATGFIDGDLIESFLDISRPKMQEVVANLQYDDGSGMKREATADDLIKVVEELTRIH
Test: Quantification of WIZ protein levels in HiBit tag fusion protein assay (WIZ HiBit assay in 293T cells)
Format: cell-based
Details: WIZ HiBit assay in 293T cells; 10-point, 5-fold dose response, highest concentration 25 μM, about 18 hours; read-out: WIZ AC50
quantityName: DC50 (µM)
Kindly answer with a numeric value in µM, unit omitted.

# example entries with known answers
Cc1ncc(CN2CCCC[C@@H]2COc2ccc3c(c2)CN(C2CCC(=O)NC2=O)C3=O)[nH]1 (some centres unmarked) [Compound I-50bp] : 7
CCN1C2CCC(C2)C1COc1ccc2c(c1)CN(C1CCC(=O)NC1=O)C2=O (single isomer, unassigned) [I-255 (Isomer 1)] : 0.012
CC(C)CN1CCN(c2ccccc2CN2CCCC[C@@H]2COc2ccc3c(c2)CN(C2CCC(=O)NC2=O)C3=O)CC1 (some centres unmarked) [Compound I-107] : 0.016
Cc1cccc(-c2n[nH]cc2CN2CCCC[C@@H]2COc2ccc3c(c2)CN(C2CCC(=O)NC2=O)C3=O)c1 (some centres unmarked) [Compound I-50dj] : 2.45
Cc1noc(C)c1CN1CCCC[C@H]1COc1ccc2c(c1)CN(C1CCC(=O)NC1=O)C2=O (some centres unmarked) [Compound I-50ao] : 0.089
O=C1CCC(N2Cc3cc(OC[C@H]4CCCCN4Cc4cnc5ccccc5c4)ccc3C2=O)C(=O)N1 (some centres unmarked) [Compound I-150] : 0.017
CCN1C2CCC(C2)C1COc1ccc2c(c1)CN(C1CCC(=O)NC1=O)C2=O (single isomer, unassigned) [I-255 (Isomer 4)] : 0.034
O=C1CCC(N2Cc3cc(OC[C@H]4CCCCN4Cc4ccc(Cn5ccnc5)cc4)ccc3C2=O)C(=O)N1 (some centres unmarked) [Compound I-50ek] : 0.004
CO[C@H]1C[C@H](CN2CCCC[C@@H]2COc2ccc3c(c2)CN(C2CCC(=O)NC2=O)C3=O)C1 (some centres unmarked) [Compound I-97] : 0.14

IN: Entry O=C1CCC(N2Cc3cc(OC[C@H]4CCCCN4Cc4c(F)cccc4F)ccc3C2=O)C(=O)N1 (some centres unmarked) [Compound I-147] , system HiBit-WIZ fusion protein (Homo sapiens, UniProt O95785+Q96SW2): what DC50 was measured?
OUT: 1.08

###

DC50 values by entry
Target: HiBit-WIZ fusion protein (Homo sapiens, UniProt O95785+Q96SW2)
Assay: Quantification of WIZ protein levels in HiBit tag fusion protein assay (WIZ HiBit assay in 293T cells)
Type: cell-based
Conditions: WIZ HiBit assay in 293T cells; 10-point, 5-fold dose response, highest concentration 25 μM, about 18 hours; read-out: WIZ AC50

# example entries with known answers
COC(=O)c1nn(-c2cccc(C(F)(F)F)c2)cc1CN1CCCC[C@@H]1COc1ccc2c(c1)CN(C1CCC(=O)NC1=O)C2=O (stereo partly drawn) [Compound I-50dc] : > 25 µM
CC(C)(C)OC(=O)NC1(CN2CCCC[C@H]2COc2ccc3c(c2)CN(C2CCC(=O)NC2=O)C3=O)CCCC1 (stereo partly drawn) [Compound I-50aq] : > 25 µM

IN: Endpoint output: DC50 of O=C1CCC(N2Cc3cc(OC[C@@H]4CCCCN4C(=O)c4ccccc4OC(F)(F)F)ccc3C2=O)C(=O)N1 (stereo partly drawn) [Compound I-72dv] . Value?
OUT: > 25 µM

###

Molecular target: HiBit-WIZ fusion protein (Homo sapiens, UniProt O95785+Q96SW2)
Assay: Quantification of WIZ protein levels in HiBit tag fusion protein assay (WIZ HiBit assay in 293T cells)
Type: cell-based
Settings: HEK-293T, DMSO-normalized, curve-fitted percentage of WIZ-HiBit remaining at 25 uM; 293T cells; read-out: WIZ Amax
# label = t if remaining activity at up to 25 µM < 50% else f

Observe how each entry below is paired with its result.
N#Cc1ccccc1CN1CCCC[C@H]1COc1ccc2c(c1)CN(C1CCC(=O)NC1=O)C2=O (some centres unmarked) [Compound I-50h] : t
CCCc1cc(C(=O)N2CCCC[C@H]2COc2ccc3c(c2)CN(C2CCC(=O)NC2=O)C3=O)no1 (some centres unmarked) [Compound I-72au] : f
COc1ccc(CC(=O)N2CCCC[C@H]2COc2ccc3c(c2)CN(C2CCC(=O)NC2=O)C3=O)cn1 (some centres unmarked) [Compound I-72hk] : f

Consider the additional molecule presented here.
IN: Please let me know if O=C1CCC(N2Cc3cc(OC[C@@H]4CCCCN4Cc4ncc[nH]4)ccc3C2=O)C(=O)N1 (some centres unmarked) [Compound I-50w] shows remaining activity at up to 25 µM below 50%.
OUT: f

###

remaining activity at up to 25 µM values by entry
Target: HiBit-WIZ fusion protein (Homo sapiens, UniProt O95785+Q96SW2)
Assay: Quantification of WIZ protein levels in HiBit tag fusion protein assay (WIZ HiBit assay in 293T cells)
Format: cell-based
Conditions: HEK-293T, DMSO-normalized, curve-fitted percentage of WIZ-HiBit remaining at 25 uM; 293T cells; read-out: WIZ Amax
Kindly answer with a numeric value in %, unit omitted.

# example entries with known answers
Cc1nc[nH]c1CN1CCCC[C@@H]1COc1ccc2c(c1)CN(C1CCC(=O)NC1=O)C2=O (stereo partly shown) [Compound I-50cs] : 28.9
O=C1CCC(N2Cc3cc(OC[C@H]4CCCCN4CC4CCN(Cc5ccccc5)CC4)ccc3C2=O)C(=O)N1 (stereo partly shown) [Compound I-50bg] : 2

IN: Endpoint output: remaining activity at up to 25 µM of Cn1c(CN2CCCC[C@@H]2COc2ccc3c(c2)CN(C2CCC(=O)NC2=O)C3=O)nc2ccccc21 (stereo partly shown) [Compound I-50cw] . Value?
OUT: 61

IN: Endpoint output: remaining activity at up to 25 µM of Cn1ccc2c(CN3CCCC[C@H]3COc3ccc4c(c3)CN(C3CCC(=O)NC3=O)C4=O)cccc21 (stereo partly shown) [Compound I-50t] . Value?
OUT: 14.8

IN: Endpoint output: remaining activity at up to 25 µM of O=C1CCC(N2Cc3cc(OC[C@H]4CCCCN4Cc4cnn(-c5cnccn5)c4)ccc3C2=O)C(=O)N1 (stereo partly shown) [Compound I-50ct] . Value?
OUT: 19.8

IN: Endpoint output: remaining activity at up to 25 µM of CN(C)c1ncc(CN2CCCC[C@H]2COc2ccc3c(c2)CN(C2CCC(=O)NC2=O)C3=O)cn1 (stereo partly shown) [Compound I-50m] . Value?
OUT: 53.4

IN: Endpoint output: remaining activity at up to 25 µM of Cc1cccc(-c2n[nH]cc2CN2CCCC[C@@H]2COc2ccc3c(c2)CN(C2CCC(=O)NC2=O)C3=O)c1 (stereo partly shown) [Compound I-50dj] . Value?
OUT: 0.3

###

Target: HiBit-WIZ fusion protein (Homo sapiens, UniProt O95785+Q96SW2)
Assay: Quantification of WIZ protein levels in HiBit tag fusion protein assay (WIZ HiBit assay in 293T cells)
Type: cell-based
Set-up: dose or concentration left out as unconfirmed
Conditions: HEK-293T, 100 minus Amax; 293T cells; read-out: % degradation of WIZ (100-Amax)
Dmax values by entry
Kindly answer with a numeric value in %, unit omitted.

# example entries with known answers
Cn1c(CN2CCCC[C@H]2COc2ccc3c(c2)CN(C2CCC(=O)NC2=O)C3=O)nc2ccccc21 (stereo partly drawn) [Compound I-50ap] : 30.1
CO[C@H]1C[C@H](CN2CCCC[C@@H]2COc2ccc3c(c2)CN(C2CCC(=O)NC2=O)C3=O)C1 (stereo partly drawn) [Compound I-97] : 91.8
Cc1noc(C)c1CN1CCCC[C@@H]1COc1ccc2c(c1)CN(C1CCC(=O)NC1=O)C2=O (stereo partly drawn) [Compound I-50el] : 30.3
O=C1CCC(N2Cc3cc(OC[C@H]4CCCCN4Cc4cccc(N5CCCC5)c4)ccc3C2=O)C(=O)N1 (stereo partly drawn) [Compound I-50do] : 99.9
Cn1nnc2cc(CN3CCCC[C@H]3COc3ccc4c(c3)CN(C3CCC(=O)NC3=O)C4=O)ccc21 (stereo partly drawn) [Compound I-50ah] : 44.4

IN: Endpoint output: Dmax of O=C1CCC(N2Cc3cc(OC[C@@H]4CCCCN4C(=O)C=C4CCCCC4)ccc3C2=O)C(=O)N1 (stereo partly drawn) [Compound I-72dm] . Value?
OUT: 11.5

IN: Endpoint output: Dmax of CCc1cc(CN2CCCC[C@@H]2COc2ccc3c(c2)CN(C2CCC(=O)NC2=O)C3=O)ccc1C1CCN(C(=O)OC(C)(C)C)CC1 (stereo partly drawn) [Compound I-155] . Value?
OUT: 75.2

IN: Endpoint output: Dmax of Cc1cc(-c2onc(C)c2C(=O)N2CCCC[C@H]2COc2ccc3c(c2)CN(C2CCC(=O)NC2=O)C3=O)no1 (stereo partly drawn) [Compound I-72ep] . Value?
OUT: 77.8

IN: Endpoint output: Dmax of CCc1nc(C)c(CN2CCCC[C@@H]2COc2ccc3c(c2)CN(C2CCC(=O)NC2=O)C3=O)[nH]1 (stereo partly drawn) [Compound I-50dh] . Value?
OUT: 66.9
